- System: 883617-216-R-J1-PDC tumor spheroids, viability
- Test protocol: Anticancer human tumor 883617-216-R-J1-PDC patient-derived bladder carcinoma cell line growth inhibition [PI3K]
- Recorded conditions: second compound 0.1 µM; first compound 0.949 µM; hits give low values; spheroids with HUVEC and MSC
Readout label: viability, T/C (%)
Give the value, in units of %, as a plain number.

The cases that follow already have their viability, T/C on record.
| Compound | System under test | Readout label | Result number |
| --- | --- | --- | --- |
| Cn1cnc2c(F)c(Nc3ccc(Br)cc3Cl)c(C(=O)NOCCO)cc21 + COc1c(OCCCN2CCOCC2)ccc2c3n(c(=NC(=O)c4cnc(N)nc4)nc12)CCN3 | 883617-216-R-J1-PDC tumor spheroids, viability | viability, T/C | 3.93 |
| Cn1cnc2c(F)c(Nc3ccc(Br)cc3Cl)c(C(=O)NOCCO)cc21 + CC(Nc1ncnc2nc[nH]c12)c1cc2cccc(Cl)c2c(=O)n1-c1ccccc1 | 883617-216-R-J1-PDC tumor spheroids, viability | viability, T/C | 30 |
| Cn1cnc2c(F)c(Nc3ccc(Br)cc3Cl)c(C(=O)NOCCO)cc21 + CC(Nc1ccc2c(c1)OCCn1cc(N3C(=O)OCC3C(F)F)nc1-2)C(N)=O | 883617-216-R-J1-PDC tumor spheroids, viability | viability, T/C | 16.7 |

Using the record for Cn1cnc2c(F)c(Nc3ccc(Br)cc3Cl)c(C(=O)NOCCO)cc21 + Cc1nc(NC(=O)N2CCCC2C(N)=O)sc1-c1ccnc(C(C)(C)C(F)(F)F)c1 , report its viability, T/C.
23.2

====

- System: 883617-216-R-J1-PDC tumor spheroids, viability
- Test protocol: Anticancer human tumor 883617-216-R-J1-PDC cell line growth inhibition [PI3K];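 further: spheroids exposed to agents for 7 days before the viability read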
- Recorded conditions: second compound 10 µM; first compound 0.0316 µM; hits give low values; spheroids with HUVEC and MSC
Label fulfilled when viability, T/C is strictly below 5%; otherwise label not fulfilled.

Worked examples follow.
| Compound | Cat |
| --- | --- |
| CC(C)NCC(C(=O)N1CCN(c2ncnc3c2C(C)CC3O)CC1)c1ccc(Cl)cc1 (stereo not given) + Cc1nc(NC(=O)N2CCCC2C(N)=O)sc1-c1ccnc(C(C)(C)C(F)(F)F)c1 | not fulfilled |
| C=CC(=O)N1CCN(c2nc(=O)n(-c3c(C)ccnc3C(C)C)c3nc(-c4c(O)cccc4F)c(F)cc23)C(C)C1 (stereo not given) + Cc1nc(NC(=O)N2CCCC2C(N)=O)sc1-c1ccnc(C(C)(C)C(F)(F)F)c1 | fulfilled |
| CCN1CCN(Cc2ccc(Nc3ncc(F)c(-c4cc(F)c5nc(C)n(C(C)C)c5c4)n3)nc2)CC1 + CC(Nc1ncnc2nc[nH]c12)c1cc2cccc(Cl)c2c(=O)n1-c1ccccc1 | not fulfilled |

We now examine a further compound.
Consider C=CC(=O)N1CCN(c2nc(=O)n(-c3c(C)ccnc3C(C)C)c3nc(-c4c(O)cccc4F)c(F)cc23)C(C)C1 (stereo not given) + CC(Nc1ncnc2nc[nH]c12)c1cc2cccc(Cl)c2c(=O)n1-c1ccccc1 . Does its viability, T/C lie strictly below 5%?
not fulfilled

====

- Test system: 883617-216-R-J1-PDC tumor spheroids, viability
- Test protocol: Anticancer human tumor 883617-216-R-J1-PDC cell line growth inhibition [PI3K];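 further: spheroids exposed to agents for 7 days before the viability read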
- Recorded conditions: second compound 0.0316 µM; first compound 0.00316 µM; hits give low values; spheroids with HUVEC and MSC
Readout label: viability, T/C (%)
# number only, unit % dropped from output

| Molecule | System under test | Readout unit | Result number |
| --- | --- | --- | --- |
| CC(C)n1nc(-c2ccc3oc(N)nc3c2)c2c(N)ncnc21 + CC(Nc1ncnc2nc[nH]c12)c1cc2cccc(Cl)c2c(=O)n1-c1ccccc1 | 883617-216-R-J1-PDC tumor spheroids, viability | % | 76.8 |
| Cn1ncnc1[C@H]1c2n[nH]c(=O)c3cc(F)cc(c23)N[C@@H]1c1ccc(F)cc1 + Cc1nc(NC(=O)N2CCCC2C(N)=O)sc1-c1ccnc(C(C)(C)C(F)(F)F)c1 | 883617-216-R-J1-PDC tumor spheroids, viability | % | 68.2 |
| CCN1CCN(Cc2ccc(Nc3ncc(F)c(-c4cc(F)c5nc(C)n(C(C)C)c5c4)n3)nc2)CC1 + CC(Nc1ncnc2nc[nH]c12)c1cc2cccc(Cl)c2c(=O)n1-c1ccccc1 | 883617-216-R-J1-PDC tumor spheroids, viability | % | 91.4 |
| CC(C)n1nc(-c2ccc3oc(N)nc3c2)c2c(N)ncnc21 + CC(Nc1ccc2c(c1)OCCn1cc(N3C(=O)OCC3C(F)F)nc1-2)C(N)=O | 883617-216-R-J1-PDC tumor spheroids, viability | % | 54.4 |
| CC(C)n1nc(-c2ccc3oc(N)nc3c2)c2c(N)ncnc21 + COc1c(OCCCN2CCOCC2)ccc2c3n(c(=NC(=O)c4cnc(N)nc4)nc12)CCN3 | 883617-216-R-J1-PDC tumor spheroids, viability | % | 34.9 |

Would you kindly look at the next entry?
Can you look up the measured viability, T/C of CC(=O)c1c(C)c2cnc(Nc3ccc(N4CCNCC4)cn3)nc2n(C2CCCC2)c1=O + CC(Nc1ccc2c(c1)OCCn1cc(N3C(=O)OCC3C(F)F)nc1-2)C(N)=O for me?
67.5

====

# viability, T/C listing for each entry below
- System: 883617-216-R-J1-PDC tumor spheroids, viability
- Test protocol: Anticancer human tumor 883617-216-R-J1-PDC cell line growth inhibition [PI3K];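 further: spheroids exposed to agents for 7 days before the viability read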
- Recorded conditions: second compound 0.0316 µM; first compound 0.316 µM; hits give low values; spheroids with HUVEC and MSC
- Text: Combinatorial screen of targeted agents with the PI3K inhibitors inavolisib, alpelisib, duvelisib, and copanlisib in multi-cell type tumor spheroids A high-throughput screen of multi-cell type tumor spheroids was designed to identify active combinations of targeted small molecules and PI3K pathway inhibitors. […] Compounds. […] If the clinical Cmax for an agent had not been determined, the highest concentration tested was 10 microM. […]
Give just the numeric value; % need not be written.

Known results for compounds:
| Compound | Readout unit | viability, T/C |
| --- | --- | --- |
| C#Cc1c(F)ccc2cc(O)cc(-c3ncc4c(N5CC6CCC(C5)N6)nc(OCC56CCCN5CC(F)C6)nc4c3F)c12 (stereo unspecified) + CC(Nc1ccc2c(c1)OCCn1cc(N3C(=O)OCC3C(F)F)nc1-2)C(N)=O | % | 64.9 |
| Cn1nccc1Nc1nccc(-c2ccn(C(CO)c3ccc(Cl)c(F)c3)c(=O)c2)n1 (stereo unspecified) + CC(Nc1ccc2c(c1)OCCn1cc(N3C(=O)OCC3C(F)F)nc1-2)C(N)=O | % | 67.1 |
| Cn1nccc1Nc1nccc(-c2ccn(C(CO)c3ccc(Cl)c(F)c3)c(=O)c2)n1 (stereo unspecified) + Cc1nc(NC(=O)N2CCCC2C(N)=O)sc1-c1ccnc(C(C)(C)C(F)(F)F)c1 | % | 68.7 |
| C=CC(=O)N1CCN(c2nc(=O)n(-c3c(C)ccnc3C(C)C)c3nc(-c4c(O)cccc4F)c(F)cc23)C(C)C1 (stereo unspecified) + COc1c(OCCCN2CCOCC2)ccc2c3n(c(=NC(=O)c4cnc(N)nc4)nc12)CCN3 | % | 16.6 |
| CC1(C)CCC(Nc2ncc(C(F)(F)F)c(-c3c[nH]c4c(P(C)(C)=O)c(C#N)ccc34)n2)CN1 (stereo unspecified) + Cc1nc(NC(=O)N2CCCC2C(N)=O)sc1-c1ccnc(C(C)(C)C(F)(F)F)c1 | % | 21.7 |
| CNC(=O)c1ccc(N2C(=S)N(c3ccc(C#N)c(C(F)(F)F)c3)C(=O)C2(C)C)cc1F + Cc1nc(NC(=O)N2CCCC2C(N)=O)sc1-c1ccnc(C(C)(C)C(F)(F)F)c1 | % | 86.2 |

viability, T/C for CCN1CCN(Cc2ccc(Nc3ncc(F)c(-c4cc(F)c5nc(C)n(C(C)C)c5c4)n3)nc2)CC1 + CC(Nc1ccc2c(c1)OCCn1cc(N3C(=O)OCC3C(F)F)nc1-2)C(N)=O ?
37.5

Which viability, T/C value is on record for CCCS(=O)(=O)Nc1ccc(F)c(C(=O)c2c[nH]c3ncc(-c4ccc(Cl)cc4)cc23)c1F + CC(Nc1ncnc2nc[nH]c12)c1cc2cccc(Cl)c2c(=O)n1-c1ccccc1 ?
97.1

Can you share its viability, T/C? I mean this compound: CC(C)NCC(C(=O)N1CCN(c2ncnc3c2C(C)CC3O)CC1)c1ccc(Cl)cc1 (stereo unspecified) + COc1c(OCCCN2CCOCC2)ccc2c3n(c(=NC(=O)c4cnc(N)nc4)nc12)CCN3
26.4

Recorded viability, T/C of CC1(C)CCC(CN2CCN(c3ccc(C(=O)NS(=O)(=O)c4ccc(NCC5CCOCC5)c([N+](=O)[O-])c4)c(Oc4cnc5[nH]ccc5c4)c3)CC2)=C(c2ccc(Cl)cc2)C1 + Cc1nc(NC(=O)N2CCCC2C(N)=O)sc1-c1ccnc(C(C)(C)C(F)(F)F)c1 , please.
87.7

Returns the measured viability, T/C for the input compound. Input: CC(C)NCC(C(=O)N1CCN(c2ncnc3c2C(C)CC3O)CC1)c1ccc(Cl)cc1 (stereo unspecified) + CC(Nc1ncnc2nc[nH]c12)c1cc2cccc(Cl)c2c(=O)n1-c1ccccc1
55

The origin of these recorded values is PubChem BioAssay AID1963973.
